Target: Neuropeptide Y receptor type 4 (Homo sapiens)
Experiment: Agonist activity at human Y4R expressed in HEK293T cells co-expressing ARRB2 assessed as induction of beta-arrestin2 recruitment measured for 40 mins by D-luciferin based luminescence assay
Type: cell-based, HEK-293T
Conditions: read-out: EC50
Quick reference for EC50 among some substances

SUBSTANCE	RESULT_MODIFIER	EC50, nM
Ac-RFRLRY-NH2	=	320
Ac-RGRLRY-NH2	=	250
Ac-RYRPRY-NH2	>	30000
H-RYRARY-NH2	>	30000
Ac-RGYRLRW-NH2	=	360
H-RYRGRY-NH2	>	30000
Ac-RGWRLRY-NH2	=	51

* * *

Each entry below lists one item and its recorded EC50 value.
Molecular target: Neuropeptide Y receptor type 4 (Homo sapiens, UniProt P50391)
Sequence (P50391 whole entry): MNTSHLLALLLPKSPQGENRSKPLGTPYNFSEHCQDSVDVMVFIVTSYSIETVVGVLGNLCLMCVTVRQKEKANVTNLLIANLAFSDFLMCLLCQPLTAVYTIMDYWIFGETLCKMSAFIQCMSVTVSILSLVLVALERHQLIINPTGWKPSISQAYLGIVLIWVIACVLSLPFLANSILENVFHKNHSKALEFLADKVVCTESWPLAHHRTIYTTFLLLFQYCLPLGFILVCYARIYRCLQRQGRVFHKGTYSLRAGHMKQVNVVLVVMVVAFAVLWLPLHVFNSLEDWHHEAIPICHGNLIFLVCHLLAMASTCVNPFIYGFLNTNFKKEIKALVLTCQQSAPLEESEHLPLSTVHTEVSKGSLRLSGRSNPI
Experiment: Agonist activity at human Y4R expressed in HEK293T cells co-expressing ARRB2 assessed as induction of beta-arrestin2 recruitment measured for 40 mins by D-luciferin based luminescence assay
Type: cell-based, HEK-293T
Conditions: read-out: EC50
Square brackets hold non-standard residues; d marks the D form. Peptide text beside a SMILES is read from it. ξ: configuration not given here. ξOrn = NCCCC(N)C(=O)O

COMPOUND	MEASURE_UNIT	RESULT_MODIFIER	EC50
N=C(N)NCCC[C@H](NC(=O)[C@H](Cc1c[nH]c2ccccc12)NC(=O)[C@@H](N)CCCNC(=N)N)C(=O)N[C@@H](Cc1ccc(O)cc1)C(N)=O (H-RWRY-NH2)	nM	>	30000
CC(=O)N[C@@H](CCCNC(=N)N)C(=O)NC(CCCN)C(=O)NCC(=O)N[C@@H](Cc1c[nH]c2ccccc12)C(=O)N[C@@H](CCCNC(=N)N)C(=O)N[C@@H](CC(C)C)C(=O)N[C@@H](CCCNC(=N)N)C(=O)N[C@@H](Cc1ccc(O)cc1)C(N)=O (stereo not given in full) (Ac-R[ξOrn]GWRLRY-NH2)	nM	=	140
CC(C)C[C@@H](NC(=O)[C@@H](N)CCCNC(=N)N)C(=O)N[C@@H](CCCNC(=N)N)C(=O)N[C@@H](Cc1ccc(O)cc1)C(N)=O	nM	>	30000
CC(C)C[C@H](NC(=O)[C@H](CCCNC(=N)N)NC(=O)[C@H](Cc1ccc(O)cc1)NC(=O)[C@@H](N)CCCNC(N)=O)C(=O)N[C@@H](CCCNC(=N)N)C(=O)N[C@@H](Cc1ccc(O)cc1)C(N)=O	nM	=	150
CN[C@@H](CCCNC(=N)N)C(=O)N[C@@H](CC(C)C)C(=O)N[C@@H](CCCNC(=N)N)C(=O)N[C@@H](Cc1ccc(O)cc1)C(N)=O	nM	=	1200

* * *

Listed below: Ki values for each entry.
Molecular target: Neuropeptide Y receptor type 5 (Homo sapiens)
Sequence (Q15761 whole entry): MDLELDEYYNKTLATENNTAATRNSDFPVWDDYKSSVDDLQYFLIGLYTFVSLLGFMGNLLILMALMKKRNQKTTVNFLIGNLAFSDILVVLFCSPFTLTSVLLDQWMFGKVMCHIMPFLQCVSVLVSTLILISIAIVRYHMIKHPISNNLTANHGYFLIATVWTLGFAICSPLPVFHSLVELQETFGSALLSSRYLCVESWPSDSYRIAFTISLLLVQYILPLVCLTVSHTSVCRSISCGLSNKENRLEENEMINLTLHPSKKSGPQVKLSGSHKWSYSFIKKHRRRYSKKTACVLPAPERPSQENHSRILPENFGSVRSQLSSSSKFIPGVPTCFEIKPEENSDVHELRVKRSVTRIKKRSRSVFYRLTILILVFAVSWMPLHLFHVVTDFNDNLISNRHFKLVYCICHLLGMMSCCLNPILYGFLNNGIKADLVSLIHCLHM
Assay: Displacement of [3H]propionyl-pNPY from human Y5 receptor expressed in human HEC1B cells
Format: cell-based
Settings: read-out: pKi (converted)
REPORTED_METRIC: Ki

SUBSTANCE	ASSAYED_TARGET	RESULT_VALUE
Ac-RGRLRY-NH2	Neuropeptide Y receptor type 5 (Homo sapiens)	> 3.16 µM
H-RYRWRY-NH2	Neuropeptide Y receptor type 5 (Homo sapiens)	> 10 µM
Ac-RGWRLRY-NH2	Neuropeptide Y receptor type 5 (Homo sapiens)	> 10 µM
Ac-RGYRWRY-NH2	Neuropeptide Y receptor type 5 (Homo sapiens)	> 3.16 µM
Ac-RFRLRY-NH2	Neuropeptide Y receptor type 5 (Homo sapiens)	> 1 µM
Ac-RGYRLRW-NH2	Neuropeptide Y receptor type 5 (Homo sapiens)	> 1 µM

* * *

Biological target: Neuropeptide Y receptor type 4 (Homo sapiens, UniProt P50391)
Experiment: Agonist activity at human Y4R expressed in HEK293T cells co-expressing ARRB2 assessed as induction of beta-arrestin2 recruitment measured for 40 mins by D-luciferin based luminescence assay
Assay type: cell-based, HEK-293T
Details: read-out: EC50
REPORTED_METRIC: log10(EC50) (log10 of the value in nM)

STRUCTURE_STRING	log10(EC50)
CC(=O)N[C@@H](CCCNC(=N)N)C(=O)N[C@@H](Cc1ccc(O)cc1)C(=O)N[C@@H](CCCNC(=N)N)C(=O)N[C@@H](CC(C)C)C(=O)N[C@@H](CCCNC(=N)N)C(=O)N[C@@H](Cc1ccc(O)cc1)C(N)=O	2.08
CC(C)C[C@H](NC(=O)[C@H](CCCNC(=N)N)NC(=O)[C@H](Cc1ccc(O)cc1)NC(=O)[C@@H](N)CCCNC(=N)N)C(=O)N[C@@H](CCCNC(N)=O)C(=O)N[C@@H](Cc1ccc(O)cc1)C(N)=O	2.97
CC(C)C[C@H](NC(=O)[C@H](N)CCCNC(=N)N)C(=O)N[C@@H](CCCNC(=N)N)C(=O)N[C@@H](Cc1ccc(O)cc1)C(N)=O	3.68
CC(=O)N[C@@H](CCCNC(=N)N)C(=O)N[C@@H](Cc1c[nH]c2ccccc12)C(=O)N[C@@H](CCCNC(=N)N)C(=O)N[C@@H](CC(C)C)C(=O)N[C@@H](CCCNC(=N)N)C(=O)N[C@@H](Cc1ccc(O)cc1)C(N)=O	1.54
CC(C)C[C@H](NC(=O)[C@H](CCCNC(=N)N)NC(=O)[C@H](Cc1ccc(O)cc1)NC(=O)[C@H](CCCNC(=N)N)NC(=O)CCC(=O)O)C(=O)N[C@@H](CCCNC(=N)N)C(=O)N[C@@H](Cc1ccc(O)cc1)C(N)=O	2.63
CC(C)C[C@H](NC(=O)[C@@H](N)CCCNC(=N)N)C(=O)N[C@@H](CCCNC(=N)N)C(=O)N[C@@H](Cc1ccc(O)cc1)C(N)=O	2.23
CC(C)C[C@H](NC(=O)[C@H](CCCNC(=N)N)NC(=O)[C@H](Cc1ccc(O)cc1)NC(=O)[C@@H](N)CCCNC(=N)N)C(=O)N[C@@H](CCCNC(=N)N)C(=O)N[C@@H](Cc1ccc(O)cc1)C(N)=O	1.58

* * *

Biological target: UniProt:P50391
Assay: Displacement of [3H]UR-KK200 from human Y4 receptor expressed in CHO cells co-expressing Gqi5-mtAEQ measured after 90 mins by scintillation counting analysis
Assay type: cell-based
Conditions: read-out: Ki
pKi: −log10 of the molar value.
REPORTED_METRIC: pKi

STRUCTURE_STRING	ASSAYED_TARGET	RESULT_VALUE
CC(C)C[C@@H](NC(=O)[C@@H](N)CCCNC(=N)N)C(=O)N[C@@H](CCCNC(=N)N)C(=O)N[C@@H](Cc1ccc(O)cc1)C(N)=O	UniProt:P50391	7.03
CC(C)C[C@H](NC(=O)[C@H](CCCNC(=N)N)NC(=O)[C@H](Cc1ccc(O)cc1)NC(=O)[C@H](CCCNC(=N)N)NC(=O)CCC(=O)O)C(=O)N[C@@H](CCCNC(=N)N)C(=O)N[C@@H](Cc1ccc(O)cc1)C(N)=O	UniProt:P50391	8.40

* * *

Reported Ki values follow for various substances
Biological target: Neuropeptide Y receptor type 2 (Homo sapiens)
Experiment: Displacement of [3H]propionyl-pNPY from human Y2 receptor expressed in CHO cells measured after 2 hrs by microbeta liquid scintillation counting analysis
Format: cell-based
Details: read-out: pKi (converted)

SUBSTANCE	Ki
Ac-RFRLRY-NH2	> 10 µM
Ac-RGWRLRY-NH2	> 3.16 µM
Ac-RGYRWRY-NH2	> 10 µM
Ac-RGYRLRW-NH2	> 1 µM
Ac-RGRLRY-NH2	> 1 µM
H-RYRWRY-NH2	> 3.16 µM

* * *

Target: Neuropeptide Y receptor type 2 (Homo sapiens, UniProt P49146)
Sequence (P49146 whole entry): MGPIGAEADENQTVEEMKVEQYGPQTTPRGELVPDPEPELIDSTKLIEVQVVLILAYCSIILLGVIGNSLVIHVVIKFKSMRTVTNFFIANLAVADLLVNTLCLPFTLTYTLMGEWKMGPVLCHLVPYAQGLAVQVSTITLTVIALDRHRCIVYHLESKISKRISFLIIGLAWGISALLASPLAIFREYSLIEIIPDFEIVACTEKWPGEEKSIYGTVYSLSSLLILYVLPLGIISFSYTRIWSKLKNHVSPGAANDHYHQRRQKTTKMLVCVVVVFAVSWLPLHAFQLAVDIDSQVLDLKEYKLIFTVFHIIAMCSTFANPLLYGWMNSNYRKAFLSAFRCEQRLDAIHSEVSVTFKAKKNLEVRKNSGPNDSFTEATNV
Experiment: Displacement of [3H]propionyl-pNPY from human Y2 receptor expressed in CHO cells measured after 2 hrs by microbeta liquid scintillation counting analysis
Assay type: cell-based
Conditions: cho; read-out: Ki
pKi: −log10 of the molar value.

SUBSTANCE	ASSAYED_TARGET	pKi
Ac-RGRLRY-NH2	Neuropeptide Y receptor type 2 (Homo sapiens, UniProt P49146)	< 6.00
Ac-RGYRWRY-NH2	Neuropeptide Y receptor type 2 (Homo sapiens, UniProt P49146)	< 5.00
Ac-RGYRLRW-NH2	Neuropeptide Y receptor type 2 (Homo sapiens, UniProt P49146)	< 6.00
Ac-RFRLRY-NH2	Neuropeptide Y receptor type 2 (Homo sapiens, UniProt P49146)	< 5.00

* * *

Biological target: Neuropeptide Y receptor type 4 (Homo sapiens, UniProt P50391)
Assay: Antagonist activity at human Y4 receptor expressed in CHO cells co-expressing Gqi5-mtAEQ assessed as inhibition of hPP-induced intracellular calcium mobilization preincubated for 15 mins followed by hPP addition and measured for 43 secs in presence of coelenterazine by aequorin-reporter gene based luminescence assay
Format: functional, cell-based

SUBSTANCE	pKb
H-RYRWRY-NH2	7.32
Ac-RGYRWRW-NH2	6.46
Ac-RYRWRY-NH2	7.22
Ac-RGYRWRY-NH2	7.57
